Tested on: NCI-H226
Assay Comment: NCI tumour cell line growth inhibition, 48 h
Active and inactive are the calls of the source. Cut-off read from the data, not from the text of the source: active = GI50 up to about 1.1 µM and inactive = higher.
In this section we review reported GI50 values for a set of molecules.

See these solved cases before continuing.
CCOC(=O)c1nc2ccccc2nc1Oc1ccc(OC)cc1 :: > 100 µM (inactive)
Clc1ccccc1/C=C/c1ccnc2ccccc12 :: 16.8 µM (inactive)
N#C/C(C(=O)Nc1ccc(Cl)cc1)=C(/N)N1CCCC1 :: > 100 µM (inactive)
c1cc2nnnn2nc1N1CCCC1 :: > 100 µM (inactive)
Cc1cc2c(cc1C)[n+]([O-])c(C(=O)C/C(=N/NC(=O)c1ccccc1O)C(=O)Nc1ccccc1C(C)C)c(C)[n+]2[O-] :: > 100 µM (inactive)

GI50 of COc1ccc(C(C)NNC(=O)c2ccncc2)cc1F (stereo not drawn) on NCI-H226?
> 100 µM (inactive)

Give NCI-H226 GI50 for `COC(=O)CCCC(=O)C1=NN(c2ccc(Cl)cc2)Cc2ccccc2N1`
51.4 µM (inactive)

For the record `O=C1c2ccccc2C(=O)N1c1ccc(Cc2ccc(N3C(=O)c4ccccc4C3=O)cc2)cc1` , what value of GI50 is listed for NCI-H226?
> 100 µM (inactive)

###

System: HCT-116
Assay Comment: NCI tumour cell line growth inhibition, 48 h
The source made the active and inactive calls. Rule as the data show it: active = GI50 up to about 1.1 µM and inactive = higher.
GI50 by entry:

Use the examples below as a reference point.
O=C(OCC1CCCN2CCCCC12)c1cccnc1 (stereo unspecified) :: > 100 µM (inactive)
CCN(CC)C(=S)SS(=O)(=O)c1cccc(N)c1 :: > 100 µM (inactive)
CCCCN(CCCC)CCC(O)c1cc2c(Cl)cc(Cl)cc2c2cc(C(F)(F)F)ccc12 (stereo unspecified) :: 12.2 µM (inactive)

If you can, please state the reported GI50 value of `c1ccc(CSc2nc3ccccc3nc2-c2cccs2)cc1` .
> 100 µM (inactive)

Which GI50 is reported for this molecule? CC(=O)NCCC1CN(C(=O)/C=C\C#C[Si](C)(C)C)c2ccccc21 (stereo unspecified)
> 10 µM (inactive)

Any idea what GI50 was measured for COc1ccc(CC2COc3cc(OC)cc(OC)c3C2=O)cc1 (stereo unspecified) ?
15.3 µM (inactive)

GI50 lookup needed for `CCOC(=O)Cc1csc2[n+]1C(=O)/C(=C/c1cccc(OC)c1O)S2` , thanks.
45.5 µM (inactive)

// returns reported GI50 for input `CC1=C[C@@H]2Cc3nc4cc(Cl)ccc4c(N)c3[C@H](C1)C2`
2.96 µM (inactive)

###

Test system: KM12
Assay Comment: NCI tumour cell line growth inhibition, 48 h
Activity calls are given as the source filed them. No stated cut-off is given here; in the data, active = GI50 up to about 1.1 µM and inactive = higher.
Listed next: entries and their corresponding GI50.

CS(=O)(=O)N1CC(CCl)c2ccc(NCCN)cc21 (stereo not drawn) :: > 100 µM (inactive)
COc1cc(C[C@@H](C)N)cc(OC)c1 :: > 100 µM (inactive)
CCOC(=O)c1cc2c(ccc3cc(C(=O)OCC)[nH]c32)[nH]1 :: 95.1 µM (inactive)
CC1=C(C(=O)Nc2cc(F)c(F)cc2F)C(c2ccc([N+](=O)[O-])cc2)C(C(=O)Nc2cc(F)c(F)cc2F)=C(C)N1 :: 29.3 µM (inactive)
CCCCN1C(=O)CS/C1=N/Nc1nc2c([nH]1)c(=O)n(C)c(=O)n2C :: 6.35 µM (inactive)
C/C=C1/CN2CCC34c5ccccc5N5C(=O)C(C6CC78c9ccccc9N9C(=O)C=CC(C%10CC7N6C/C%10=C/C)C98)=CC(C1CC23)C54 (stereo not drawn) :: 9.55 µM (inactive)
Nc1ncnc2c1ccn2COC(CO)CO :: > 100 µM (inactive)
Cc1ccc(S(=O)(=O)C2=Cc3ccccc3C2(O)c2ccccc2)cc1 (stereo not drawn) :: 21.4 µM (inactive)

Param readout = GI50; param system = KM12; param query = `O=C1Nc2c(Cl)cc(Cl)cc2/C1=N/NC(=O)c1ccncc1` ; response: value
30.9 µM (inactive)

Missing value: GI50, KM12, entry CCCCCCCCC/C=C1/CC(CO)(COC(=O)CC(C(C)C)C(C)C)OC1=O (stereo not drawn) . Fill in?
8.85 µM (inactive)

Test system KM12; read-out GI50; what value for `O=C(Cc1nc2ccccc2o1)C(=O)Nc1cccc(Cl)c1` ?
> 100 µM (inactive)

###

Measurement record for HCT-15; quantity recorded: GI50.
Respond with the bare value in µM.

Recorded results for 4 molecules are shown here.
COc1ncnc2c(NC3OC(CO)C(O)C3O)ncnc12 (stereo not drawn) :: 0.179
Cc1c([C@H](C)[C@@H]2NC[C@@H](C)C[C@H]2O)ccc2c1C[C@H]1[C@H]2CC=C2C[C@@H](O)CC[C@@]21C :: 20.2
CC(=O)NC1=C(OS(=O)(=O)c2ccc(C)cc2)CN(C)C1=O :: 2.96
CCOC(=O)C(Cc1c(C=O)[nH]c2ccccc12)(NC(=O)c1ccccc1)C(=O)OCC :: 6.7

API: the following record is the query input.
Recall the recorded GI50 for `C=C1c2nc3ccccc3n2C=C(c2ccc(OC)cc2)N1c1ccc(OCCN2CCCCC2)cc1` with HCT-15 and state it.
4.74

###

Test system: BT-549
Assay Comment: NCI tumour cell line growth inhibition, 48 h
Activity calls are given as the source filed them. Rule as the data show it: active = GI50 up to about 1.1 µM and inactive = higher.
In this exercise, the only acceptable responses are Y for active, N for inactive

O=C1OC(=O)C2CCCC3CCCC1C32 (configuration not stated) :: N
CCN(CC)CCC(=O)/C=C/c1ccc(Cl)c(Cl)c1 :: N
COC(=O)[C@]1(C)CCC[C@]2(C)[C@@H](CCC(=O)C(C)C)[C@]3(C=O)O[C@@H]3C[C@H]21 :: N

// param item: CC(CC(=O)N1C2CC3CCC2(CS1(=O)=O)C3(C)C)[Si](C)(C)C (configuration not stated) ; yields the recorded call
N

Hi, sorry to bother you, what did the test record for `O=C1c2ccccc2C(=O)N1c1ccc(Cc2ccc(N3C(=O)c4ccccc4C3=O)cc2)cc1` ?
N

Hey, what did the test say about O=C1CCCCC(=O)OC2(CCCCC2=O)CC1 (configuration not stated) ?
N

Could you check what this test reported for C=C1C(C[C@@H]2O[C@H]3C[C@H]4O[C@@]5(C[C@@H]6O[C@]7(C[C@H](C)[C@@H]8O[C@@H]9CC(C(O)CO)O[C@@H]9C[C@@H]8O7)C[C@H](C)[C@@H]6O5)C[C@H]4O[C@H]3[C@H](C)[C@H]2O)O[C@@H](CC[C@@H]2O[C@@H](CC[C@@]34CC5O[C@H]6C(O[C@H]7CC[C@H](CC(=O)OC)O[C@@H]7[C@@H]6O3)[C@H]5O4)CC2=C)C[C@H]1C (some centres not stated) ?
Y

###

Test system: COLO 205
Assay Comment: NCI tumour cell line growth inhibition, 48 h
Calls of active or inactive are those of the source. Cut-off read from the data, not from the text of the source: active = GI50 up to about 1.1 µM and inactive = higher.
Consider the following molecules and their measured GI50 readings.

For orientation, consider the following solved cases.
O=C(O)c1ccc(NNC(=O)c2cccc3c(=O)c4ccccc4[nH]c23)cc1 :: > 100 µM (inactive)
CC(=O)C1(C)CC(C#N)(C#N)C(C#N)=C1N (configuration not stated) :: > 100 µM (inactive)
O=C(O)CC1(C(=O)O)CCCCC1 :: > 100 µM (inactive)

Value wanted: GI50 (COLO 205) of entry `Oc1ccc(-c2nc3ccc(Br)cc3s2)cc1`
15.9 µM (inactive)

What is its GI50 for COLO 205? Entry: CS(=O)(=O)N1CC(CCl)c2ccc(NCCN)cc21 (configuration not stated)
> 100 µM (inactive)

Form: Entry = NC(=O)N/N=C1/CCC(O)CC1CC(=O)O (configuration not stated) | System = COLO 205 | GI50 = ____
> 100 µM (inactive)

State its GI50 on COLO 205: `COc1cc(C[C@@]2(C)[C@@H]3CCC[C@H](CO)[C@@]3(C)CC[C@@H]2C)c(Cl)c(OC)c1`
15.3 µM (inactive)

###

Measured GI50, listed per entry.
Test system: SK-OV-3
Assay Comment: NCI tumour cell line growth inhibition, 48 h
Calls of active or inactive are those of the source. No stated cut-off is given here; in the data, active = GI50 up to about 1.1 µM and inactive = higher.

CC1=C(C(=O)N(C(C)C)C(C)C)CC(C(=O)N(C(C)C)C(C)C)=C(C)N1 :: > 100 µM (inactive)
CNC(=O)OC(COC)CN1CCN(c2ccccc2C)CC1 (stereo not given) :: > 10 µM (inactive)
O=S1OC(c2ccccc2)(c2ccccc2)C(c2ccccc2)(c2ccccc2)O1 :: > 100 µM (inactive)
CCOC(=O)/C=C(\C(=O)OCC)n1ccc(=O)n(CC(=O)OCC)c1=O :: 17.9 µM (inactive)

Shift focus to the following entry.
Dear colleague, I am looking for the recorded GI50 of the following molecule: `C=CCN1C(=O)CC(=O)N(NC2=NNC3(C(=O)N2)c2ccccc2-c2ccccc23)C1=S`
42.2 µM (inactive)

###

Test system: MOLT-4
Assay Comment: NCI tumour cell line growth inhibition, 48 h
Active and inactive are the calls of the source. Cut-off read from the data, not from the text of the source: active = GI50 up to about 1.1 µM and inactive = higher.
Entries and their GI50

Known results for molecules:
Cc1ccc(S(=O)(=O)C2=Cc3ccccc3C2(O)c2ccccc2)cc1 (centres undefined) :: 29.2 µM (inactive)
COC(=O)[C@]1(C)CCC[C@]2(C)[C@@H](CCC(=O)C(C)C)[C@]3(C=O)O[C@@H]3C[C@H]21 :: 29.9 µM (inactive)
NCCCCC(NC(=O)C(N)Cc1ccc(O)cn1)C(=O)O (centres undefined) :: > 100 µM (inactive)
Cc1c([C@H](C)[C@@H]2NC[C@@H](C)C[C@H]2O)ccc2c1C[C@H]1[C@H]2CC=C2C[C@@H](O)CC[C@@]21C [VERATRAMINE] :: 13.1 µM (inactive)
O=C(NCCCCCCNCc1cccc2ccccc12)Nc1cccc2ccccc12 :: > 100 µM (inactive)
C=C1c2nc3ccccc3n2C=C(c2ccc(OC)cc2)N1c1ccc(OCCN2CCCCC2)cc1 :: 2.58 µM (inactive)
COc1cc([N+](=O)[O-])c(S(=O)(=O)O)cc1-n1nc(-c2ccccc2)n[n+]1-c1cc(S(=O)(=O)[O-])c([N+](=O)[O-])cc1OC :: > 100 µM (inactive)
Cc1ccc(NC=O)c(-c2c(N)[nH]c(=S)[nH]c2=O)c1 :: > 100 µM (inactive)

// switching to the query molecule
Please look up its GI50: C[Si](C)(C)/C(Br)=C\CCN1C(=O)CCC1O (centres undefined)
> 100 µM (inactive)
